Assay Procedure: soluble on expression in E. coli; label from the status in PepcDB or PDB records
Recorded Endpoint: soluble on expression in E. coli

Field: example entries. Status: answers known.
residue_codes=MSLSINSETLVNHMNHEIAAIQPSDILAFNAEIANIPGIVRLTLGEPDFNTPEHVKQAAIESIEADESHYAPSNGTLALRTAAAEFLAAKYDVHYDPASEVIITAGATGGIYTALTSILNPGDEVLIPTPIFPLYIAIVKLSGATPVFMDTSDNGFVLSPDQLQTTLAAHPKTKAVVLNFPSNPTGVTYRHDDLKALAAVLADQPIFVLSDEIYSELTYGEPHESIANYLPTQTILLNGVSKSHAMTGWRIGIMCAPKAITAQLGKIHQFTVTSTTTNAQAAAAGLKQLTSRTAGVDTIDIPAAKAAGLVVTNVEGHHHHHH observed_result="not soluble"
residue_codes=MGGSHHHHHHGMASALKEKKSQETEVTSTLEQQKICLVLESCLKKNSDEEGSQEKGGDDSQQKFIAHVPVPSQQEIEEALVRRKKMELLQKYASETLQAQSEEARRLLGY observed_result="not soluble"
residue_codes=MPRLENTIDIKVPVNIAYNQWTQFETFPNFMSSVLQVKQLDDSHVWWQVEIGGHAIEWETEIIEQVPDDHIAWRSVSGPRHLGLVSFKHVDIHATRVHVEIEYEADMKAEVSATMTGLLEQKISEALTCYRQLLESRKRPAGGWRGRIAVGTDNAVRHLEHHHHHH observed_result=soluble
residue_codes=SNAQVEVIVMMHGRSTATSMVETVQELLSIESGIALDMPLTVEVKAMYEKLKQTVVKLNPVKGVLILSDMGSLTSFGNILTEELGIRTKTVTMVSTPVVLEAMRKASLGRGLEDIYQSCEQLFENKYKAH observed_result=soluble
residue_codes=MTRRPDRKDVATVDELHASATKLVGLDDFGTDDDNYREALGVLLDAYQGEAGLTVLGSKMNRFFLRGALVARLLSQSAWKQYPEHVDVAIKRPIFVTGLVRTGTTALHRLLGADPAHQGLHMWLAEYPQPRPPRETWESNPLYRQLDADFTQHHAENPGYTGLHFMAAYELEECWQLLRQSLHSVSYEALAHVPSYADWLSRQDWTPSYCRHRRNLQLIGLNDAEKRWVLKNPSHLFALDALMATYPDALVVQTHRPVETIMASMCSLAQHTTEGWSTKFVGAQIGADAMDTWSRGLERFNAARAKYDSAQFYDVDYHDLIADPLGTVADIYRHFGLTLSDEARQAMTTVHAESQSGARAPKHSYSLADYGLTVEMVKERFAGL observed_result=soluble

Req: # soluble on expression in E. coli lookup, item `MGSDKIHHHHHHMNELTKQLQEIMVPKAALIAYEYQEGHYASGSHYLELRPINKKGRMEAGIPVTYEFMDSLVESYSDGNRRIPHGWLPPNMLWCDTRRGHESYVWYNPPGKRRMFFKNDLNIGDGMFHVPGVIYIIKNERMDIFAYKGKKPDGRTPLYLAPFFNVTGGNVCLGNSTLEKPESLDFHTLLEYWEKRFWLSEFSHLGGGKNPTRNNLVLVTERMREQPFDNDELQPINKRLKDILP`
Resp: not soluble

---

Assay Procedure: soluble on expression in E. coli; label from the status in PepcDB or PDB records
Recorded Endpoint: soluble on expression in E. coli

residue_codes=AEDAKLRINGATVTSATNKVTNYIPGVTINLKKETTGAEKLTIQDQSDEKAASMITSFVNTYNALTSTMKTYTGKGTILQASAADLEANRALNNVFQHKKDGNTLFDFGISVDKEGVLKVDETAMKKMVAEDPTAVERFFFGIGGIGDELYQSLNKTFGSTGFISDETTSMTNEINKLNLKLTDITSRNDTLLTNITDQYNKWLEMMQAMQSDAMTLDALIDGMNSSNK observed_result="not soluble"
residue_codes=MGSDKIHHHHHHMVATLDDTKRNAIAVKLASIKALQQLVIENEQSLLREGLDAEIADRIRNFLKDDEKNLGVLETVIGQYGIQAEPKKNVTQFIEKARELFKGSELSLYEKVSQHELLKHQLVMSGLIVHKAAQKVGADVLLAIGPLNTINFENRAHQEQLKGILEILGVREFTGQDADQGIWARVQDAMAAVSGVVGSAVTQTSDKSDLNIQDVIRLDHNKVNTLFTELLQSDNPQKIQEYFGQIYKDLTAHAEAEEEVVYPRVRPFYGQDNTQELFDEQAEMKRVLEQIKAISPSSSEFKDRVRQLMEAVGDHIRQEESTMFAAIRNNLSSDQSEQLATEFKAAKTRIQEKLGVVSESNA observed_result="not soluble"
residue_codes=MQIVQIARPGSMKGWIRKAVARYAHATGRGGKFYRRFCNPSGLEWGAYLARWGNFHSVGSNFYVNTGCKFLDPSLVRIGNSVGLSDCTLIGHDGVVLLIEHRFGKHLDSVGFIDIKDNCFIGHGAIVMPRVTIGPESIVAAGAVVTKDVPPGTVYGGNPAEFICTTEQLIKRVEARCEAYPWIDLVKQRNGAYDPEVEPLLMAQRRQYFFGDSLEHHHHHH observed_result="not soluble"

---

Assay Procedure: soluble on expression in E. coli; label from the status in PepcDB or PDB records
Recorded Endpoint: soluble on expression in E. coli

residue_codes=MNKQEVILKVQECAAWWILERQSKLTKLMSETMSINPFMTPFIFDYHSLNDFDELVEAIIAKHLMTGHDTGFGKLIDEKILPRVFGAYKLDKSYRAANEPFIHPCFDEIDHVIQRDDGRIELLSLKAGKWTIQLTMAVQLNKAFHEIINNYPGVADNIVVGVFYGNSHGLTDKYRILRGINTGANHNVIDIRDKVHVYAGKEFWSWLNNGEAETQHWVLEGIERAVKEADIKEKNKDLIEKFKEHVAKKYNEQVLNADGTAQWHKLLEMINE observed_result=soluble
residue_codes=SDAALLLNVEGVKKTILHGGTGELPNFITGSRVIFHFRTMKCDEERTVIDDSRQVGQPMHIIIGNMFKLEVWEILLTSMRVHEVAEFWCDTIHTGVYPILSRSLRQMAQGKDPTEWHVHTCGLANMFAYHTLGYEDLDELQKEPQPLVFVIELLQVDAPSDYQRETWNLSNHEKMKAVPVLHGEGNRLFKLGRYEEASSKYQEAIICLRNLQTKEKPWEVQWLKLEKMINTLILNYCQCLLKKEEYYEVLEHTSDILRHHPGIVKAYYVRARAHAEVWNEAEAKADLQKVLELEPSMQKAVRRELRLLENRMAEKQEEERLRCRNMLSQGATQPPAEPPTEPPAQSSTEPPAEPPTAPSAELSAGPPAEPATEPPPSPGHSLQH observed_result=soluble

---

Assay Procedure: soluble on expression in E. coli; label from the status in PepcDB or PDB records
Recorded Endpoint: soluble on expression in E. coli

Field: example entries. Status: answers known.
residue_codes=MGSSHHHHHHSSGLVPRGSHMMRKQRIVIKISGACLKQNDSSIIDFIKINDLAEQIEKISKKYIVSIVLGGGNIWRGSIAKELDMDRNLADNMGMMATIINGLALENALNHLNVNTIVLSAIKCDKLVHESSANNIKKAIEKEQVMIFVAGTGFPYFTTDSCAAIRAAETESSIILMGKNGVDGVYDSDPKINPNAQFYEHITFNMALTQNLKVMDATALALCQENNINLLVFNIDKPNAIVDVLEKKNKYTIVSK observed_result=soluble
residue_codes=GSMPKPINVRVTTMDAELEFAIQPNTTGKQLFDQVVKTVGLREVWFFGLQYVDSKGYSTWLKLNKKVTQQDVKKENPLQFKFRAKFFPEDVSEELIQEITQRLFFLQVKEAILNDEIYCPPETAVLLASYAVQAKYGDYNKEIHKPGYLANDRLLPQRVLEQHKLTKEQWEERIQNWHEEHRGMLREDSMMEYLKIAQDLEMYGVNYFEIKNKKGTELWLGVDALGLNIYEHDDKLTPKIGFPWSEIRNISFNDKKFVIKPIDKKAPDFVFYAPRLRINKRILALCMGNHELYMRRRKPDTIEVQQMKAQARVDSSGRIVTD observed_result=soluble
residue_codes=MGSDKIHHHHHHMAPLLFRQILDLEAEAIQRAAERADAEAFANATQLIANCSGKVVLSGVGKSGIIARKITATLLSIGTLSAFLHPCDALHGDLGIVTEQDVVVMLSNSGETDELLAMLPHLQRRQVPIIAIVGNMRSTLARVAAAVLDASVDREACPLNLAPTASTTVALAIGDALAAQVMDYRSVTSEQFAFNHPAGRLGKRLTLKVVDVMHQGEELPLLPPEARFVEVVTAISRGGLGAVPIVEADGRLLGLITDGDLRRLLEQTSPAKLDQITAAEFMTPQPIAVEGDLLAYDALHLMENRPSQISVLPVVDAAQRCLGLVRIHDLIRSGI observed_result="not soluble"
residue_codes=MGSDKIHHHHHHVSLIQEYKKQQNWRDWERYLESIPYSGEDTVIDLGCSVGDVSQLFSLRVKNVIGIDVNQDFIDICESQKSVNQTFICSDFLSLDSQLIESTNGIWSSFSLSYLRNPLDFLIYLNASMKQGGWIALLDISCFISGNLAKKSQYYEKVLKFELESYKSGIYDFDFGSKMLSMLQNAGFDIVYLDNDVTDPELNFTGAASAEIIHGWAARLNRMNRLKDEIGAEYPDFCNELLANLSSDTHEKRQNVRFIVARKPITSVNKATDSCAGVHSQ observed_result="not soluble"
residue_codes=MGSDKIHHHHHHMAGSAGGLSASDGDFFLCDLFDPVPKGDLGTMEHPVFSLATRPDRRILTYEHNGVEITVTPSVKGRATIFDKDILIFCTSQLMAAINANRPVSRTLQLTAHDLLLATGRDRSGDGYKRLRAAFERLAGTRITTNLITGGVEVTQGFGLIEAWQIVRRTRNGRMVSVSVTLSEWLYRAALTKSVLTLSRQYFRMRKPLERRIYELARKHCGRQNEWRVSVDTLLKKSGSASPRRVFRAMLREMIAADALPDYHLQEEPGDILRVTLRDAVIEAAGRPIVSSDTLNQARALMPGWDVYVLEAEWRNWWAATGRPHLRSPDKAFLGWVRTQAARA observed_result="not soluble"

Req: # soluble on expression in E. coli lookup, item `MAEIQFSKGVAETVVPEVRLSKSKNGQSGMAKFYFLEPTILAKESTDDITGMYLIDDEGEIITREVKGKFINGRPTAIEATVILNSQPEWDRFMRFMERYGAENGLGFSKSELEHHHHHH`
Resp: soluble
